# tested-on: T1, huZIP12-ECD-GST (human, UniProt Q504Y0 24-202)
# T1 construct: also called hZIP12-ECD-GST; human ZIP12-ECD-GST; not shown: glutathione S-transferase (GST) tag
# test-method-notes: SPR single cycle kinetics (Biacore): mAb captured on protein A, huZIP12-ECD-GST injected at 3.12-800 nM
observation-type: kon

binder	observation-type	experimental-value
H3_M105P_L1 (antibody, V domains shown, Fc null human IgG1 / human kappa) VH: QVQLVESGGGVVQPGRSLRLSCAASGFTFSDYGMHWVRQAPGKGLEWVAYISSGGTTIYYADTVKGRFTISRDNSKNTLYLQMNSLRAEDTAVYYCARWTNLYAPDYWGQGTTVTVSS VL: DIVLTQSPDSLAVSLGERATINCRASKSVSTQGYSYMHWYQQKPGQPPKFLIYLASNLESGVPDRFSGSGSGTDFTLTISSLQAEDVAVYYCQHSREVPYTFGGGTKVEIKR	kon	28100 M⁻¹ s⁻¹
H2_K65P_VL-par (antibody, V domains shown, Fc null human IgG1 / human kappa) VH: QVQLVESGGGVVQPGRSLRLSCAASGFTFSDYGMHWVRQAPGKGLEWVAYISSGGTTIYYADTVPGRFTISRDNSKNTLYLQMNSLRAEDTAVYYCARWTNLYAMDYWGQGTTVTVSS VL: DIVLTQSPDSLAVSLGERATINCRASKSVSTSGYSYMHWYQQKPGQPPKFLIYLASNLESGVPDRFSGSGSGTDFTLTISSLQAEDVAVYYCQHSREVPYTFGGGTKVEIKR	kon	27000 M⁻¹ s⁻¹
H2_T56H_L2 (antibody, V domains shown, Fc null human IgG1 / human kappa) VH: QVQLVESGGGVVQPGRSLRLSCAASGFTFSDYGMHWVRQAPGKGLEWVAYISSGGHTIYYADTVKGRFTISRDNSKNTLYLQMNSLRAEDTAVYYCARWTNLYAMDYWGQGTTVTVSS VL: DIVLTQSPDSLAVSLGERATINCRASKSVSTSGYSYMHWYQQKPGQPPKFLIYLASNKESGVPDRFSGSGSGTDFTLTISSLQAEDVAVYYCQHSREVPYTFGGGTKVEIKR	kon	23200 M⁻¹ s⁻¹
H2_K65P_L1 (antibody, V domains shown, Fc null human IgG1 / human kappa) VH: QVQLVESGGGVVQPGRSLRLSCAASGFTFSDYGMHWVRQAPGKGLEWVAYISSGGTTIYYADTVPGRFTISRDNSKNTLYLQMNSLRAEDTAVYYCARWTNLYAMDYWGQGTTVTVSS VL: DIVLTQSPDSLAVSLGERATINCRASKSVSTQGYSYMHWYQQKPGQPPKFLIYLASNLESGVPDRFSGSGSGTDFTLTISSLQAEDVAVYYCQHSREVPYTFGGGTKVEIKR	kon	28800 M⁻¹ s⁻¹
H2_T57H_L1 (antibody, V domains shown, Fc null human IgG1 / human kappa) VH: QVQLVESGGGVVQPGRSLRLSCAASGFTFSDYGMHWVRQAPGKGLEWVAYISSGGTHIYYADTVKGRFTISRDNSKNTLYLQMNSLRAEDTAVYYCARWTNLYAMDYWGQGTTVTVSS VL: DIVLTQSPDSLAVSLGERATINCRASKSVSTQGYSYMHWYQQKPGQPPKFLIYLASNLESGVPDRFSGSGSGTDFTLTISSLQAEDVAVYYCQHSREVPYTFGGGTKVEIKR	kon	44400 M⁻¹ s⁻¹
H2_G66Q_VL-par (antibody, V domains shown, Fc null human IgG1 / human kappa) VH: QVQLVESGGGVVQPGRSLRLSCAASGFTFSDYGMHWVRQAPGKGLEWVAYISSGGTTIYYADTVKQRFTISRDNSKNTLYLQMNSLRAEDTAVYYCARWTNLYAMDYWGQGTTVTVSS VL: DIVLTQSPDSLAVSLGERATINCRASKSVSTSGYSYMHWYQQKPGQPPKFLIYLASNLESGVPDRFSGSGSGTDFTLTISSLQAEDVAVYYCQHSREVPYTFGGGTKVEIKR	kon	34400 M⁻¹ s⁻¹
H2_G66Q_L2 (antibody, V domains shown, Fc null human IgG1 / human kappa) VH: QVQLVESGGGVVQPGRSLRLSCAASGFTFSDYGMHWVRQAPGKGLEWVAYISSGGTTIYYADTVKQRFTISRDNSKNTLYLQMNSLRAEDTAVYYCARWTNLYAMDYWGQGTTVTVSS VL: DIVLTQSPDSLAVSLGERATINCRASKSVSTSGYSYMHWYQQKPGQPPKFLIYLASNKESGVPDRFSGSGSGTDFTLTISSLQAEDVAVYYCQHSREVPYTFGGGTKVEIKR	kon	29100 M⁻¹ s⁻¹

The measurements presented in this section are drawn from patent US20260109761A1.
